method description: clinical
experimental conditions: female, human, in vivo, po, 0.35 mg
experimental endpoint: Vd/F (L)
Note: unit L is implicit; provide only the numeric part.

For record C#C[C@]1(O)CC[C@H]2[C@@H]3CCC4=CC(=O)CC[C@@H]4[C@H]3CC[C@@]21C [norethindrone] the listed Vd/F is 564

###

method description: clinical
experimental conditions: female, human, in vivo, po, 0.35 mg
experimental endpoint: Tmax (h)
Note: unit h is implicit; provide only the numeric part.

For record C#C[C@]1(O)CC[C@H]2[C@@H]3CCC4=CC(=O)CC[C@@H]4[C@H]3CC[C@@]21C [norethindrone] the listed Tmax is 1.86

These data points were gathered from paper PMC4268426.
